Entry source: the supplement of paper PMC12636428

List of transcriptional activation domain activity values.
# Test system: Saccharomyces cerevisiae
# METHOD: transcriptional activation domain activity (GFP:mCherry ratio, weighted mean of sorted bins, harmonized to initial dataset scale) (arbitrary fluorescence ratio units); higher = stronger transcriptional activation
# CONDITIONS USED: beta-estradiol 1 µM; induction time 4 h

# annotated cases, reported transcriptional activation domain activity shown
SEQUENCE INPUT: MPEPAAAAAPRQRAFRTKSRLGCLQCKRRHVKCDERRPRCGRCVAAGSDCSLQ
EXPERIMENTAL RESULT: 17400

SEQUENCE INPUT: YFLLSILFFFFSNNFTFTLLYLLHASYHIQSLYRHILVSVFCNYPSLLLFFFL
EXPERIMENTAL RESULT: 53000

SEQUENCE INPUT: MLHLAALSPLMLLVFLLFSLFFKFFATFIWLYIMAYILITTLIIVFRITLPAN
EXPERIMENTAL RESULT: 68500

SEQUENCE INPUT: EGGEKGGHGGKEGGEGGEGGEGGEEGGHGGHWGHKKHGHGGGKQKGGWGHHGY
EXPERIMENTAL RESULT: 45300

Recorded transcriptional activation domain activity of `EEREEEKEEEKEEKEQEKKKEEETRRRIRSRKRRGARRRETMRKTSQRGNRKK` , please.
25200

Recorded transcriptional activation domain activity of `RSKSSDESSSDSDSDSGSESGSDSDTSRRKRSKSKSSSRSKSKSKSSKLRARS` , please.
10600

Recorded transcriptional activation domain activity of `MWGWNGKEIHFSFTEVFLKFLIWLVHSFLRSFLGFSNGFFLTFPLVGFFFSFL` , please.
54800

Recorded transcriptional activation domain activity of `KQYCVRPNSGRIEPGGEVDVQILLQAMKEDPPADAKCRDKFLVQSVLVTADKE` , please.
50100

Recorded transcriptional activation domain activity of `CFILLHLVLSFFALSCLYCLVLLLLPLPLILLFLLSSPWKFVPVHLQRHFVVV` , please.
68600
